Data origin, for the record: ChEMBL document CHEMBL3045795

Test system: Scenedesmus acutus
PROCEDURE SUMMARY: Growth inhibition of Scenedesmus acutus assessed as reduction in packed cell volume
Type: functional, organism-based
ASSAY SETUP: read-out: pI50 (converted)
Listing: IC50 of selected molecules
Report only the number, with the unit nM understood.

Fc1cc(Cl)ccc1-n1c(=S)n2n(c1=S)CCCC2 | 23.4
S=c1n(-c2ccc(Cl)cc2)c(=S)n2n1CCCC2 | 61.7
S=c1s/c(=N\c2ccc(Cl)cc2)n2n1CCCC2 | 339
COC(=O)CSc1cc(/N=c2\sc(=S)n3n2CCCC3)c(F)cc1Cl | 245
S=c1s/c(=N\c2ccc(OCc3ccc(Cl)cc3)cc2)n2n1CCCC2 | 21.9

Query (molecule): Cc1cc(Cl)ccc1-n1c(=S)n2n(c1=S)CCCC2 ; field requested: IC50
105

Try this molecule too: S=c1s/c(=N\c2ccccc2)n2n1CCCC2
14100

----------
TARGET OR TEST SYSTEM: Protoporphyrinogen IX oxidase (UniProt C1N1S5)
Sequence (C1N1S5 as listed by the source): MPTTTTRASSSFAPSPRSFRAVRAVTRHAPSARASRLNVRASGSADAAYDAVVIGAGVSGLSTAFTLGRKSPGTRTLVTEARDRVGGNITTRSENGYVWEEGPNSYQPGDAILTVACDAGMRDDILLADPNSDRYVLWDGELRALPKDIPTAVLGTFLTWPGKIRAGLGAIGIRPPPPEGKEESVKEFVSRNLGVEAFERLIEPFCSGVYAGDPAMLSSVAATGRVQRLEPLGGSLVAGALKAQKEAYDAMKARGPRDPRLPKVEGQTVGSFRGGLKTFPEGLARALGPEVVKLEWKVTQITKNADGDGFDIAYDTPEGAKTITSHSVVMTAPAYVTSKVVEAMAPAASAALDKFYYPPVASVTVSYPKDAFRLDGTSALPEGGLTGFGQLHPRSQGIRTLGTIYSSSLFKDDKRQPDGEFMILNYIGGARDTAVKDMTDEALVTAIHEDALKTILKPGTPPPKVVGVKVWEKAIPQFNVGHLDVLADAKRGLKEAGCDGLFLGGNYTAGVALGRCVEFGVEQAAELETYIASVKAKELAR
PROCEDURE SUMMARY: Inhibition of Protoporphyrinogen IX oxidase in Scenedesmus acutus assessed as protoporphyrin IX level per ml of packed cell volume by HPLC
# note: exactly 60 nmol is not below, so it is not satisfied; use satisfied for Activity strictly under it

Answered cases to consult:
Cc1cc(Cl)ccc1/N=c1\sc(=S)n2n1CCCC2 | satisfied
S=c1n(-c2ccccc2)c(=S)n2n1CCCC2 | satisfied
Fc1cc(Cl)ccc1-n1c(=S)n2n(c1=S)CCCC2 | not satisfied
CCOc1cc(Oc2ccc(C(F)(F)F)cc2Cl)ccc1[N+](=O)[O-] [OXYFLUORFEN] | not satisfied
Fc1cc(Cl)ccc1/N=c1\sc(=S)n2n1CCCC2 | satisfied

For the next question, use this compound.
# TODO verify Activity < 60 nmol strictly for this compound: CC(C)Oc1cc(/N=c2\sc(=S)n3n2CCCC3)c(F)cc1Cl
satisfied

----------
TARGET OR TEST SYSTEM: Protoporphyrinogen IX oxidase (UniProt C1N1S5)
PROCEDURE SUMMARY: Inhibition of Protoporphyrinogen IX oxidase in Scenedesmus acutus assessed as protoporphyrin IX level per ml of packed cell volume by HPLC
Overview of reported Activity across a group of compounds:
Numeric answer only, unit nmol assumed.

COC(=O)CSc1cc(/N=c2\sc(=S)n3n2CCCC3)c(F)cc1Cl | 34.1
COC(=O)CSc1cc(-n2c(=S)n3n(c2=S)CCCC3)c(F)cc1Cl | 56
Cc1cc(Cl)ccc1-n1c(=S)n2n(c1=S)CCCC2 | 63.3

Form field: reported Activity of S=c1s/c(=N\c2ccc(Br)cc2)n2n1CCCC2
25.3

Ok, now S=c1s/c(=N\c2ccc(Cl)cc2)n2n1CCCC2
20.3

Now try S=c1n(-c2ccc(OCc3ccc(Cl)cc3)cc2)c(=S)n2n1CCCC2 .
80.3

----------
TARGET OR TEST SYSTEM: UniProt:C1N1S5
PROCEDURE SUMMARY: Inhibition of Protoporphyrinogen IX oxidase in Scenedesmus acutus assessed as protoporphyrin IX level per ml of packed cell volume by HPLC
Decision: Activity beneath 60 nmol gives Condition met; Activity meeting or exceeding 60 nmol gives Condition not met.

C#CCOc1cc(/N=c2\sc(=S)n3n2CCCC3)c(F)cc1Cl | Condition not met
S=c1s/c(=N\c2ccccc2)n2n1CCCC2 | Condition met
S=c1n(-c2ccc(Cl)cc2)c(=S)n2n1CCCC2 | Condition met
S=c1n(-c2ccc(Br)cc2)c(=S)n2n1CCCC2 | Condition not met
S=c1s/c(=N\c2ccc(OCc3ccc(Cl)cc3)cc2)n2n1CCCC2 | Condition met

Quick check: Activity of C#CCOc1cc(-n2c(=S)n3n(c2=S)CCCC3)c(F)cc1Cl under 60 nmol?
Condition not met

----------
TARGET OR TEST SYSTEM: Protoporphyrinogen IX oxidase (Zea mays)
PROCEDURE SUMMARY: Inhibition of Protoporphyrinogen IX oxidase in Zea mays cv. Anjou (maize) seedlings etioplasts homogenates assessed as reduction in protoporphyrin IX production by fluorescence spectroscopy
ASSAY SETUP: read-out: pI50 (converted)
The entries below are paired with their reported IC50.
Please reply with the bare figure in nM and do not write the unit itself.

Recorded IC50 for Fc1cc(Cl)ccc1-n1c(=S)n2n(c1=S)CCCC2 , please?
7.24

Thanks! And C#CCOc1cc(-n2c(=S)n3n(c2=S)CCCC3)c(F)cc1Cl ?
8.91

Can you check Cc1cc(Cl)ccc1-n1c(=S)n2n(c1=S)CCCC2 next?
151

Fc1cc(Cl)ccc1/N=c1\sc(=S)n2n1CCCC2 , same question.
1100

----------
Listing of entries alongside the reported IC50.
Tested on: Scenedesmus acutus
PROCEDURE SUMMARY: Growth inhibition of Scenedesmus acutus assessed as reduction in packed cell volume
Assay type: functional, organism-based
ASSAY SETUP: read-out: pI50 (converted)

What does the data say about its IC50? Entry: CCOc1cc(Oc2ccc(C(F)(F)F)cc2Cl)ccc1[N+](=O)[O-]
30.9 nM

Now the compound S=c1n(-c2ccccc2)c(=S)n2n1CCCC2
7940 nM

Now the same for Fc1cc(Cl)ccc1/N=c1\sc(=S)n2n1CCCC2
120 nM

Another compound to check: CC(C)Oc1cc(-n2c(=S)n3n(c2=S)CCCC3)c(F)cc1Cl
7.59 nM

Try this compound next: C#CCOc1cc(-n2c(=S)n3n(c2=S)CCCC3)c(F)cc1Cl
2.04 nM

Can you check CC(C)Oc1cc(/N=c2\sc(=S)n3n2CCCC3)c(F)cc1Cl next?
13.8 nM

Let us now turn to C#CCOc1cc(/N=c2\sc(=S)n3n2CCCC3)c(F)cc1Cl
7.24 nM

Follow-up item: S=c1s/c(=N\c2ccc(Br)cc2)n2n1CCCC2
162 nM

Next compound up: S=c1n(-c2ccc(Br)cc2)c(=S)n2n1CCCC2
64.6 nM

----------
TARGET OR TEST SYSTEM: Protoporphyrinogen IX oxidase (Zea mays)
Sequence (Q9FYV8 whole entry): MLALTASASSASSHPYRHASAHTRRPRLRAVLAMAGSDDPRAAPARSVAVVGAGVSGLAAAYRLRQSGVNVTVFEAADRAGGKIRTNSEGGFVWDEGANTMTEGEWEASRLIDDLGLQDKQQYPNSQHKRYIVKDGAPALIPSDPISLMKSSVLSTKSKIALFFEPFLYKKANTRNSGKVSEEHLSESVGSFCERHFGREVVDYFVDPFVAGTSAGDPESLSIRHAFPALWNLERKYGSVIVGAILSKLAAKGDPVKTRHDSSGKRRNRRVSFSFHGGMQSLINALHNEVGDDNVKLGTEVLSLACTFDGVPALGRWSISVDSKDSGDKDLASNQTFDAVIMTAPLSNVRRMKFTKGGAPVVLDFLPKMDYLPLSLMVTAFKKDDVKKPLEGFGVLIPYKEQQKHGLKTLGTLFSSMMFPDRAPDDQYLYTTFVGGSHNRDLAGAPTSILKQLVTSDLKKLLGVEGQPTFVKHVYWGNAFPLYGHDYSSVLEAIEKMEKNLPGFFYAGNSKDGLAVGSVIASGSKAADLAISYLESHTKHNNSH
PROCEDURE SUMMARY: Inhibition of Protoporphyrinogen IX oxidase in Zea mays cv. Anjou (maize) seedlings etioplasts homogenates assessed as reduction in protoporphyrin IX production by fluorescence spectroscopy
ASSAY SETUP: read-out: pI50 (converted)
ASSAY ENDPOINT: IC50

Below, each entry is followed by its recorded IC50 result.
S=c1s/c(=N\c2ccccc2)n2n1CCCC2 | > 31600 nM
S=c1n(-c2ccccc2)c(=S)n2n1CCCC2 | 3240 nM

Could you tell me which IC50 is on file for S=c1s/c(=N\c2ccc(OCc3ccc(Cl)cc3)cc2)n2n1CCCC2 ?
813 nM

Input COC(=O)CSc1cc(/N=c2\sc(=S)n3n2CCCC3)c(F)cc1Cl
120 nM

Now the compound CC(C)Oc1cc(-n2c(=S)n3n(c2=S)CCCC3)c(F)cc1Cl
1.2 nM

What about S=c1n(-c2ccc(Cl)cc2)c(=S)n2n1CCCC2 ?
6.76 nM

Okay, and Cc1cc(Cl)ccc1/N=c1\sc(=S)n2n1CCCC2 ?
7590 nM

----------
System: Scenedesmus acutus
PROCEDURE SUMMARY: Growth inhibition of Scenedesmus acutus assessed as reduction in packed cell volume
Format: functional, organism-based
ASSAY SETUP: read-out: pI50 (converted)
ASSAY ENDPOINT: IC50 (nM)
Numeric answer only, unit nM assumed.

Cc1cc(Cl)ccc1/N=c1\sc(=S)n2n1CCCC2 | 457
S=c1n(-c2ccc(OCc3ccc(Cl)cc3)cc2)c(=S)n2n1CCCC2 | 17.4

Reported IC50 for COC(=O)CSc1cc(-n2c(=S)n3n(c2=S)CCCC3)c(F)cc1Cl : what is it?
186
